Give pKi for every item shown.
# study-target: full-length hepatitis C NS3 protease enzyme with NS4A cofactor (HCV NS3/4A protease complexes) (Hepatitis C virus genotype 1a, UniProt P27958)
# Construct: full-length hepatitis C NS3 protease enzyme
# Sequence (P27958 1027-1657, one chain of several): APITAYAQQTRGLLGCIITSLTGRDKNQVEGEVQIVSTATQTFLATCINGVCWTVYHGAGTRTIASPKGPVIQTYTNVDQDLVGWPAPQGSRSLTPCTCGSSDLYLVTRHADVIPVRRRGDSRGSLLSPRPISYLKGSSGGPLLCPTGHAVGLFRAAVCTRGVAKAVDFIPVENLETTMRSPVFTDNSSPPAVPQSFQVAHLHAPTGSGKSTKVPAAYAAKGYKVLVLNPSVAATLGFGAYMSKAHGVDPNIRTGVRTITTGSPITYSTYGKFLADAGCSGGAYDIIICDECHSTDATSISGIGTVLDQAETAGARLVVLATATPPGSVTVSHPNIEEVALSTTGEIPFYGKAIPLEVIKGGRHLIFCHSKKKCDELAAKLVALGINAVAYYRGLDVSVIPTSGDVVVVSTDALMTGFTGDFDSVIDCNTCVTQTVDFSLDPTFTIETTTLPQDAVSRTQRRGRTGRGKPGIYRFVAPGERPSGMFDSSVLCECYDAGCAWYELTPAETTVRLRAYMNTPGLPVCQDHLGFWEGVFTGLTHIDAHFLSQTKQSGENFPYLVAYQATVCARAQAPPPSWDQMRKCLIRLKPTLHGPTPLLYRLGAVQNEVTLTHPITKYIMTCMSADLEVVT
# run-description: HCV NS3/4A protease inhibition assay (enzymatic)
# cond: full-length NS3 1 nM, 25 μM NS4A cofactor, 0.5 μM depsipeptide substrate, 30° C., competitive inhibition model
pKi: −log10 of the molar value.

Please report the measured pKi for COc1ccc2c(O[C@@H]3C[C@H]4C(=O)N[C@]5(C(=O)O)CC5/C=C\CCCCN(N(C)C)C(=O)[C@@H]4C3)cc(-c3ccccc3)nc2c1 (some centres unmarked)
5.70 to 7.00

Indicate the recorded pKi value for this compound: COc1ccc2c(O[C@@H]3C[C@H]4C(=O)N[C@]5(C(=O)NS(=O)(=O)C6CC6)CC5/C=C\CCCCN(N(C)C)C(=O)[C@@H]4C3)cc(-c3ccccc3)nc2c1 (some centres unmarked)
8.31 to 10.00
